FYI, the data here is from paper PMC8957602.

conditions: human, serum, oral, Mean clearance, without acid reducers
METRIC_NAME: clearance (mL/min)
Numbers only, in mL/min.

clearance reading for CC1(COc2ccc3c(c2)ncn3-c2ccc3cccc(N4CCC(N)CC4)c3n2)COC1 [crenolanib] : 980
